- measurement-target: GSPT1 protein (Homo sapiens, UniProt P15170+Q96SW2)
- Construct: endogenous in cells; host or cells: CAL51
- Sequence (P15170 whole entry): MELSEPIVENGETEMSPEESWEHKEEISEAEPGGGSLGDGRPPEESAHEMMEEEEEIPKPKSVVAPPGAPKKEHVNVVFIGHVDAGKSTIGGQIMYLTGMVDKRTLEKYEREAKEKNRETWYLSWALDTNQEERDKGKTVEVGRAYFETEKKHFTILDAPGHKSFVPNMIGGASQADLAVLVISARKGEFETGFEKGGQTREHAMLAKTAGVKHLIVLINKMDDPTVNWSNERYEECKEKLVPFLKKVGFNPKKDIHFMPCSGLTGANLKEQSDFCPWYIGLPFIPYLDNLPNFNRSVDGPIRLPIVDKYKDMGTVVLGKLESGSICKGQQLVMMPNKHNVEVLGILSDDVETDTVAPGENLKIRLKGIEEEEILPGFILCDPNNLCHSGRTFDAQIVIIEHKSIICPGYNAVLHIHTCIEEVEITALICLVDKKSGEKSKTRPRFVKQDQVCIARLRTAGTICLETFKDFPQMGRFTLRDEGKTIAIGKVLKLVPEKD
- Sequence (Q96SW2 whole entry): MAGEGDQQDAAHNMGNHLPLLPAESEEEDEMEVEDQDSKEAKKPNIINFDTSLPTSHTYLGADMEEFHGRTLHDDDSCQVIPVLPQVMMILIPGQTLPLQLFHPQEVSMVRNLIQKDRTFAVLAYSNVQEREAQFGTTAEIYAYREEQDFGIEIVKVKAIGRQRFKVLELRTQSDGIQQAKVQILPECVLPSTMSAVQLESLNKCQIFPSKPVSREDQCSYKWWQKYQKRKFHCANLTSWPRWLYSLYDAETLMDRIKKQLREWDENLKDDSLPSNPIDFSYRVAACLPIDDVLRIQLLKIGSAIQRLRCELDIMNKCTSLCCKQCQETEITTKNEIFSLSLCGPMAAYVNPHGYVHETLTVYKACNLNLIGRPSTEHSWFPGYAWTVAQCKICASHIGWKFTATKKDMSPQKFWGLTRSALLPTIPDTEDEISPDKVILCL
- Sequence (Q16531 whole entry partner): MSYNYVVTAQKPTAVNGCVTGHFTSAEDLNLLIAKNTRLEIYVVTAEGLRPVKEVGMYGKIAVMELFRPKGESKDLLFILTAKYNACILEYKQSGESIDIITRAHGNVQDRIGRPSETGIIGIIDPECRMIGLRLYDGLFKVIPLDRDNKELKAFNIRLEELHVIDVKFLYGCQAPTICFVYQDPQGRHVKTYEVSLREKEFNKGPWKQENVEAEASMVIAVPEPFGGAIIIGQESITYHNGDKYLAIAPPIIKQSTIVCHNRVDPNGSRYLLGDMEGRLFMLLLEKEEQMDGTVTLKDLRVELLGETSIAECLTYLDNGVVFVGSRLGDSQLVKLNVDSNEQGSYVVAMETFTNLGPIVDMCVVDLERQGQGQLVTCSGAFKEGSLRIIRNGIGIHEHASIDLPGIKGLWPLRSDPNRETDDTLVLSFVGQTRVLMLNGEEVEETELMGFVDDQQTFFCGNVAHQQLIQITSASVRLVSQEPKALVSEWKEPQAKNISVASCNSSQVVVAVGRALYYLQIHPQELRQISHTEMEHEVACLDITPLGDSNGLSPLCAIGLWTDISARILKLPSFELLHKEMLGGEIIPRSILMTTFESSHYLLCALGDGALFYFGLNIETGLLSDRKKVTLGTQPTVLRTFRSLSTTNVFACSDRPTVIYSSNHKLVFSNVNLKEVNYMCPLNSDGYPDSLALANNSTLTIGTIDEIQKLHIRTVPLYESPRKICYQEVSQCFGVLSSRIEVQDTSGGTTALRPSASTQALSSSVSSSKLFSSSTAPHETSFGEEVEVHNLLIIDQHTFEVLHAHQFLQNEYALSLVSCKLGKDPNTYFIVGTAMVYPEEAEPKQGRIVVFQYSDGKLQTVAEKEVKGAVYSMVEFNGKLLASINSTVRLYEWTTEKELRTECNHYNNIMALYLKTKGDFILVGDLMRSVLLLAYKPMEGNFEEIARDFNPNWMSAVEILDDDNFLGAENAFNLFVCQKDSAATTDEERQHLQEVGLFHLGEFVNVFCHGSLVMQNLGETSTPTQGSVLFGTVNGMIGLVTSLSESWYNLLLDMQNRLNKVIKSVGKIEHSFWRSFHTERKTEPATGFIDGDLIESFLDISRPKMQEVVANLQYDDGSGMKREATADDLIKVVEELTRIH
- experiment-description: Degradation activity experiment on intracellular GSPT1 protein in CAL51 cells
- Assay type: cell-based
- details: 6 hours, anti-GSPT1/anti-α-Tubulin antibody staining in 384-well plate
value-type: DC50 (nM)

Example results:
Prompt: Missing value: DC50, GSPT1 protein (Homo sapiens, UniProt P15170+Q96SW2), entry CNc1cc(C#CC(=O)NCc2ccc3c(c2)cc2n3C(=O)N(C3CCC(=O)NC3=O)C2)ccc1C (stereo not shown) [Compound 4] . Fill in?
Response: 144

Prompt: Missing value: DC50, GSPT1 protein (Homo sapiens, UniProt P15170+Q96SW2), entry Cc1ccc(NC(=O)OCc2ccc3c(c2)cc2n3C(=O)N(C3CCC(=O)NC3=O)C2)cc1Cl (stereo not shown) [Compound 3] . Fill in?
Response: 25.4

A: CNc1ccc(NC(=O)OCc2ccc3c(c2)cc2n3C(=O)N(C3CCC(=O)NC3=O)C2)cc1Cl (stereo not shown) [Compound 8]
B: Cc1ccc(NC(=O)OCc2cccc3c2cc2n3C(=O)N(C3CCC(=O)NC3=O)C2)cc1Cl (stereo not shown) [Compound 13]
C: CNCCOCCc1cc(NC(=O)OCc2ccc3c(c2)cc2n3C(=O)N(C3CCC(=O)NC3=O)C2)ccc1Cl (stereo not shown) [Compound 9]
D: O=C1CCC(N2Cc3cc4cc(COC(=O)Nc5cc(OC(F)(F)F)ccc5F)ccc4n3C2=O)C(=O)N1 (stereo not shown) [Compound 5]
E: Cc1ccc(NC(=O)NCc2ccc3c(c2)cc2n3C(=O)N(C3CCC(=O)NC3=O)C2)cc1Cl (stereo not shown) [Compound 2]
Prompt: List the 5 entries from lowest DC50 to highest DC50 value. I would appreciate it if you listed the labels in the requested order.
Response: A, D, E, B, C

###

- measurement-target: GSPT1 protein (Homo sapiens, UniProt P15170+Q96SW2)
- Construct: endogenous in cells; host or cells: CAL51
- experiment-description: Degradation activity experiment on intracellular GSPT1 protein in CAL51 cells
- Format: cell-based
- details: CAL-51, 6 hours, anti-GSPT1/anti-α-Tubulin antibody staining in 384-well plate, read-out: Maximum degradation rate (%) (GSPT1 protein degradation activity)
value-type: Dmax (%)

Prompt: Any idea what its Dmax is? The compound is CNc1ccc(NC(=O)OCc2ccc3c(c2)cc2n3C(=O)N(C3CCC(=O)NC3=O)C2)cc1Cl (stereo not shown) [Compound 8]
Response: 94.6

Prompt: Any idea what its Dmax is? The compound is Cc1ccc(NC(=O)OCc2cccc3c2cc2n3C(=O)N(C3CCC(=O)NC3=O)C2)cc1Cl (stereo not shown) [Compound 13]
Response: 96.3

Prompt: Any idea what its Dmax is? The compound is Cc1ccc(NC(=O)NCc2ccc3c(c2)cc2n3C(=O)N(C3CCC(=O)NC3=O)C2)cc1Cl (stereo not shown) [Compound 2]
Response: 95.4

Prompt: Any idea what its Dmax is? The compound is CNc1cc(C#CC(=O)NCc2ccc3c(c2)cc2n3C(=O)N(C3CCC(=O)NC3=O)C2)ccc1C (stereo not shown) [Compound 4]
Response: 85.3

Prompt: Any idea what its Dmax is? The compound is Cc1ccc(NC(=O)OCc2ccc3c(c2)cc2n3C(=O)N(C3CCC(=O)NC3=O)C2)cc1Cl (stereo not shown) [Compound 3]
Response: 98.3

Prompt: Any idea what its Dmax is? The compound is CNCCOCCc1cc(NC(=O)OCc2ccc3c(c2)cc2n3C(=O)N(C3CCC(=O)NC3=O)C2)ccc1Cl (stereo not shown) [Compound 9]
Response: 69.6

Prompt: Any idea what its Dmax is? The compound is O=C1CCC(N2Cc3cc4cc(COC(=O)Nc5cc(OC(F)(F)F)ccc5F)ccc4n3C2=O)C(=O)N1 (stereo not shown) [Compound 5]
Response: 96.7
